Taken from ChEMBL document CHEMBL1146773.

tested on: Mus musculus; experiment: In vivo anti-inflammatory activity determined by inhibition of oxazolone-induced allergic contact dermatitis (ACD) in mouse up on tropical application; format: functional; design: concentration or dose not given beside the values
# Inhibition values compiled below
# output: bare number, implied unit %

In [3]: df
Out[3]:
                                   compound  unit_string  assay_result
0  CC(=O)[C@H]1CC[C@]2(C)[C@@H]1CC[C@@H]1[C@@]3(C)CC[C@H](O)C(C)(C)[C@@H]3CC[C@]12C            %            12

stdin: Tell me measured Inhibition for CC(NCc1ccccc1)[C@H]1CC[C@]2(C)[C@@H]1CC[C@H]1[C@H]2CC[C@H]2C(C)(C)[C@@H](O)CC[C@]12C (stereo in doubt; 4bB) please.
stdout: 15

stdin: Report Inhibition, nothing else, for this compound: C[C@H](NC(=O)/C=C/c1ccccc1)[C@H]1CC[C@]2(C)[C@@H]1CC[C@H]1[C@H]2CC[C@H]2C(C)(C)[C@@H](O)CC[C@]12C
stdout: 11

stdin: Provide Inhibition value for the following compound: CCCCNC(C)[C@H]1CC[C@]2(C)[C@@H]1CC[C@H]1[C@H]2CC[C@H]2C(C)(C)[C@@H](O)CC[C@]12C (stereo in doubt; 4aA)
stdout: 30

stdin: Read the entry C[C@H](N)[C@H]1CC[C@]2(C)[C@@H]1CC[C@H]1[C@H]2CC[C@H]2C(C)(C)[C@@H](O)CC[C@]12C (stereo in doubt; 5A) and write its reported Inhibition.
stdout: 38
